Target: Plasmodium falciparum protein kinase 6 (PK6, PF3D7_1337100) (UniProt Q8IDW1)
Sequence (Q8IDW1 1-305): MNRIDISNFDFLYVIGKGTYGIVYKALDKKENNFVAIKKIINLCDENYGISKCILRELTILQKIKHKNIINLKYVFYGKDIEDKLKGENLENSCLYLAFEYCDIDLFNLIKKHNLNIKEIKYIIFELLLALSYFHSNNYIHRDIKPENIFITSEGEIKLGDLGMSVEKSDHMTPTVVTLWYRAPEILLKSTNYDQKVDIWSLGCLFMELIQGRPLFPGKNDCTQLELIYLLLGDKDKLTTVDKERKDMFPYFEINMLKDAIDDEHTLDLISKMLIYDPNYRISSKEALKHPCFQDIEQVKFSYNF
Test: PfPK6 kinase inhibitors, biochemical, TCAMS library (AID 1159586)
Conditions: recombinant PfPK6, Kinase-Glo ATP depletion luminescence
Give pIC50 for every item shown.
# pIC50: negative log10 of molar concentration; output just the value

Problem: // returns reported pIC50 for input O=C(Cc1ccc(Nc2nccc(Nc3cccc4[nH]ncc34)n2)cc1)Nc1ccc(C(F)(F)F)cc1
Result: 6.78

Problem: One more compound: CS(=O)(=O)Cc1cccc(Nc2ncc(Cl)c(Nc3cccnc3C(N)=O)n2)c1
Result: 7.13

Problem: One more compound: CN1CCN(c2ccc(Nc3nccc(-c4cnn5ncccc45)n3)cc2Cl)CC1
Result: 6.75

Problem: One more compound: CN(c1ccc2c(c1)nc(NCc1ccccc1)n2C)c1ccnc(Nc2ccc(CS(C)(=O)=O)cc2)n1
Result: 6.33

Problem: One more compound: Nc1ncnc2occ(-c3ccc(NC(=O)Nc4cc(C(F)(F)F)ccc4F)cc3)c12
Result: 6.47

Problem: One more compound: CN(c1ccc(NC(=O)Nc2cccc(Cl)c2)cc1)c1ccnc(N)n1
Result: 6.40

Problem: One more compound: NC(=O)c1ccccc1Nc1nc(Nc2cccc(N3CCN(CCO)CC3)c2)ncc1Cl
Result: 7.10

Problem: One more compound: CN(c1ccc2c(c1)nc(NCc1ccc(F)cc1)n2C)c1ccnc(Nc2ccc(CS(C)(=O)=O)cc2)n1
Result: 6.07

Problem: One more compound: COc1c(CN2CCOCC2)cccc1-c1cc2c(-c3ccc(C(=O)O)c(C(C)C)c3)ccnc2[nH]1
Result: 6.16

Problem: One more compound: Nc1ncc(-c2cccc(F)c2)cc1-c1nc2ccc(F)cc2[nH]1
Result: 6.69

Problem: One more compound: CNC(=O)c1ccccc1Nc1nc(Nc2cccc(CS(C)(=O)=O)c2)ncc1C
Result: 6.88

Problem: One more compound: N#Cc1cnc(Nc2ccc(Oc3ccccc3)cc2)nc1Nc1cccc(S(N)(=O)=O)c1
Result: 6.70

Problem: One more compound: CC(c1cccc(Nc2nccc(-c3c(-c4cccc(NC(=O)c5c(F)cccc5F)c4)nn4ncccc34)n2)c1)S(C)(=O)=O (configuration not stated)
Result: 6.43

Problem: One more compound: CC(=O)Nc1ccc(Nc2ncc([N+](=O)[O-])c(Nc3ccccc3C(N)=O)n2)cc1
Result: 6.89

Problem: One more compound: CS(=O)(=O)Cc1ccc(Nc2nccc(N3CCCc4cc(NC(=O)Nc5cccc(C(F)(F)F)c5)ccc43)n2)cc1
Result: 6.41

Problem: One more compound: Cn1cc(-c2ccnc3[nH]c(-c4cccc(CNC5CCC(O)CC5)c4)cc23)cn1 (configuration not stated)
Result: 6.75

Problem: One more compound: CCNC(=O)Nc1ccc(N(C)c2ccnc(Nc3ccc(CS(C)(=O)=O)cc3)n2)cc1
Result: 6.57

Problem: One more compound: CC(=O)Nc1cccc(Nc2nccc(-c3c(-c4cccc(NC(=O)c5c(F)cccc5F)c4)nn4ncccc34)n2)c1
Result: 6.84

Problem: One more compound: CC(=O)Nc1nc(C)c(-c2csc(Nc3ccc(Cl)cc3)n2)s1
Result: 7.02

Problem: One more compound: CS(=O)(=O)Cc1ccc(Nc2ncc(Cl)c(Nc3cccnc3C(N)=O)n2)cc1
Result: 6.16

Problem: One more compound: O=c1[nH]ccc2nc(N[C@@H]3CCCNC3)nc(Nc3ccc(S(=O)(=O)N4CCOCC4)cc3)c12
Result: 6.94

Problem: One more compound: O=S1(=O)NCc2ccc(Nc3nccc(Nc4ccc5c(cnn5Cc5ccccc5)c4)n3)cc21
Result: 6.58

Problem: One more compound: COc1ccc(Nc2ncc(OC)c(Nc3ccccc3C(N)=O)n2)cc1N1CCN(C)CC1
Result: 6.57

Problem: One more compound: CNC(=O)c1ccccc1Nc1nc(Nc2ccc(CCN3CCN(C)CC3)cc2)ncc1Cl
Result: 7.15

Problem: One more compound: CN1CCN(c2ccc(Nc3ncc(C#N)c(Nc4ccccc4C(N)=O)n3)cc2)CC1
Result: 7.05

Problem: One more compound: Cn1nc(-c2ccc(NC(=O)Nc3ccc4ccccc4c3)c(F)c2)c2cnc(NCCN3CCOCC3)nc21
Result: 6.07

Problem: One more compound: Cc1ccc(Nc2ccnc(Nc3ccc4c(c3)CS(=O)(=O)C4)n2)cc1O
Result: 6.91

Problem: One more compound: CCN(CC)CCNc1nccc(N(C)c2ccc(NC(=O)Nc3cc(C(F)(F)F)ccc3F)cc2)n1
Result: 6.04

Problem: One more compound: Cc1cc(Nc2nc(Nc3cccc(Cl)c3)nc3ccccc23)n[nH]1
Result: 6.82

Problem: One more compound: CCN(CC)CCNC(=O)c1ccc(Nc2ncc([N+](=O)[O-])c(Nc3ccccc3OC)n2)cc1
Result: 6.96

Problem: One more compound: NS(=O)(=O)c1ccc(Nc2nccc(-c3c(-c4cccc(NC(=O)c5c(F)cccc5F)c4)nn4ccccc34)n2)cc1
Result: 6.85

Problem: One more compound: CC(=O)c1ccc(NC(=O)Nc2ccc(N(C)c3ccnc(Nc4cccc(CS(C)(=O)=O)c4)n3)cc2)cc1
Result: 6.86

Problem: One more compound: NCCNS(=O)(=O)c1ccc(-c2ccnc3[nH]c(-c4ccncc4)cc23)cc1
Result: 6.68

Problem: One more compound: COc1cccc(-n2ncc3c(N/N=C/c4ccc(CN(C)CCN(C)C)cc4)ncnc32)c1
Result: 7.24

Problem: One more compound: NCCNC(=O)c1ccc(-c2cnc3[nH]cc(-c4ccc(C(N)=O)cc4)c3c2)cc1
Result: 6.03

Problem: One more compound: CS(=O)(=O)Cc1ccc(Nc2nccc(-c3c(-c4cccc(NC(=O)C5CCCCC5)c4)nn4ncccc34)n2)cc1
Result: 6.86

Problem: One more compound: N=C(N)c1ccc(Nc2nc(Nc3ccc(-c4ccccc4)cc3)ncc2[N+](=O)[O-])cc1
Result: 6.79
